Listed molecules paired with reported inhibition of SARS-CoV-2 cytopathic effect
- System: Vero E6 infected with SARS-CoV-2
- assay_info: inhibition of SARS-CoV-2 cytopathic effect; higher = more antiviral protection, active = above 15
- assay_conditions: 1 nM; 48 h
outcome_measure: inhibition of SARS-CoV-2 cytopathic effect (%)

molecule	unit_symbol	recorded_number
Cc1c(C(=O)N2CCOc3ccc(-c4ccc(N)nc4)cc3C2)ccc(S(C)(=O)=O)c1F	%	-2.79
CCOC(=O)[C@@H](N)Cc1ccc(-c2cc(O[C@H](c3ccc(Cl)cc3-n3ccc(C)n3)C(F)(F)F)nc(N)n2)cc1	%	-0.32
CNC(=O)[C@H](Cc1ccccc1)NC(=O)[C@H](CC(C)C)[C@H](CSc1cccs1)C(=O)NO	%	-1.9
C=CC(=O)N1CCN(C(=O)CNc2cc(I)c(Cl)cc2O)CC1 [K-Ras(G12C)-inhibitor-12]	%	3.63
C=C(C)[C@@H]1CC[C@]2(C(=O)O)CC[C@]3(C)[C@H](CC[C@@H]4[C@@]5(C)CC[C@H](OC(=O)CC(C)(C)C(=O)O)C(C)(C)[C@@H]5CC[C@]43C)[C@@H]12	%	-1.52
CCc1cc(Cl)c(OC)c(C(=O)NC[C@@H]2CCCN2CC)c1O [eticlopride]	%	-0.43
O=C(CC1NCCCC1O)Cn1cnc2cc(Br)c(Cl)cc2c1=O (stereo not drawn)	%	-3.21
OB1OCc2cc(Cl)ccc21	%	1.12
CC(=O)NCCc1c(Cc2ccccc2)[nH]c2ccccc12	%	5.27
COc1ccccc1N1CCN(CCCCN2C(=O)c3ccccc3C2=O)CC1	%	-0.49
CC(C)N(CCNC(=O)CN1CCCC1=O)C(C)C	%	-3.32
NCCc1c[nH]c2ccc(O)cc12	%	-0.73
Clc1ccc2c(c1)N=C(N1CCNCC1)c1ccccc1N2	%	1.9
Cc1cn([C@H]2O[C@@H](CO)[C@H](O)[C@H]2F)c(=O)[nH]c1=O	%	3.12
Cc1ccc(NC(=O)CCCCCC(=O)Nc2ccccc2N)cc1	%	2.4
Cn1c(CNc2ccc(C(=N)N)cc2)nc2cc(C(=O)N(CCC(=O)O)c3ccccn3)ccc21	%	-0.46
O=c1ccc2ccc(O)c(O)c2o1	%	-1.96
CCCc1cc(=O)[nH]c(=S)[nH]1	%	3.65
